target-under-test: Alpha-1A adrenergic receptor (Rattus norvegicus)
Sequence (P43140 whole entry): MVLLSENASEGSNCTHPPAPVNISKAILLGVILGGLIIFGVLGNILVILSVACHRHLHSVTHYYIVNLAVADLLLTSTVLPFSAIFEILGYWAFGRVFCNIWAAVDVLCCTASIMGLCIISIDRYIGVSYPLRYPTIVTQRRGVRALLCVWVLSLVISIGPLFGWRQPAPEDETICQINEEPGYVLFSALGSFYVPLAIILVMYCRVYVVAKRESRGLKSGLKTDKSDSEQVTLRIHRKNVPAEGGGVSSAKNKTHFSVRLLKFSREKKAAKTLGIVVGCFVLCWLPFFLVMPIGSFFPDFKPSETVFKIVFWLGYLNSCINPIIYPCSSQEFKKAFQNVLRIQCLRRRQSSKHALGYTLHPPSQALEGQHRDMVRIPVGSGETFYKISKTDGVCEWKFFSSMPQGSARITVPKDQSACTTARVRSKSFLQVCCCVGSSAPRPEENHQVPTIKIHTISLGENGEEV
test-summary: Binding affinity for Alpha-1 adrenergic receptor measured by displacing [3H]prazosin from rat cortical membranes
readout-name: Ki (nM)

In [3]: df
Out[3]:
                                 smiles_str  readout_name  reading_qualifier  experimental_value
0  COc1ccccc1N1CCN(CCn2c(=O)c3c(c4ccccc4n3C)n(C)c2=O)CC1            Ki                  =                0.32
1  O=c1[nH]c2c([nH]c3ccccc32)c(=O)n1CCN1CCN(c2ccccc2Cl)CC1            Ki                  =                0.53
2  O=c1[nH]c2c([nH]c3ccccc32)c(=O)n1CCN1CCN(c2ccc(Cl)cc2)CC1            Ki                  ≥               10000
3  COc1ccc(N2CCN(CCn3c(=O)[nH]c4c([nH]c5ccccc54)c3=O)CC2)cc1            Ki                  >                5000
4  O=c1[nH]c2c([nH]c3ccccc32)c(=O)n1CCN1CCN(c2ccccc2)CC1            Ki                  =                 1.8
5  COc1ccccc1N1CCN(CCn2c(=O)[nH]c3c([nH]c4ccccc43)c2=O)CC1            Ki                  =                0.21
6  O=c1[nH]c2c([nH]c3ccccc32)c(=O)n1CCN1CCNCC1            Ki                  >              100000
7  COc1ccccc1N1CCN(CCCn2c(=O)[nH]c3c([nH]c4ccccc43)c2=O)CC1            Ki                  =                  13
